assay_system: T1, HLA-A*03:01 (human)
T1 construct: also called peptide-receptive MHC molecules
assay_text: UV-exchange b2m ELISA; exchange-yield grade
# Lookup of reported peptide exchange yield keyed by entry

binder	peptide exchange yield
VSKTTGMEF	10 to 20%
GMMKGGIRK	50 to 75%
KVVDRWNEK	20 to 50%
KLQPAQTAAK	20 to 50%
SSSSATISK	20 to 50%
ALEVAHRLK	20 to 50%
VTDLISPRK	20 to 50%
KTYETNLEIKK	50 to 75%
GTYAHTVNR	50 to 75%
KSLIKSWKK	20 to 50%
RRIHTGEKPYK	20 to 50%
RLQEWKALK	50 to 75%
